# target-under-test: ATR kinase (full-length ATR) (Homo sapiens)
# Construct: Assays were carried out at 25° C. in the presence of 5 nM full-length ATR
# assay-comment: ATR Inhibition Assay (radioactive-phosphate incorporation)
# Format: biochemical
# condition-info: Ki(app); 5 nM full-length ATR, 10 μM ATP, 800 μM target peptide, 25° C.; class symbols; read-out: ATR Inhibition Ki
measurement-kind: Ki

Sample answers from the record:
compound | measurement-kind | result
CC(C)S(=O)(=O)c1ccc(-c2cnc3[nH]cc(C(=O)Nc4ccc(N)cc4)c3n2)cc1 [Compound I-18] | Ki | < 100 nM
CC(C)S(=O)(=O)c1ccc(-c2cnc3[nH]cc(C(=O)NCc4cccc(F)c4F)c3n2)cc1 [Compound I-88] | Ki | < 100 nM
Cc1cccc(Cl)c1CNC(=O)c1c[nH]c2ncc(-c3ccc(S(=O)(=O)C(C)C)cc3)nc12 [Compound I-54] | Ki | < 100 nM
CC(C)S(=O)(=O)c1ccc(-c2cnc3[nH]cc(C(=O)N[C@@H](C)c4ccc(F)cc4)c3n2)cc1 [Compound I-74] | Ki | 500 to 5000 nM
CC(C)S(=O)(=O)c1ccc(-c2cnc3[nH]cc(C(=O)N[C@@H](C)c4ccccc4F)c3n2)cc1 [Compound I-71] | Ki | 100 to 500 nM
CC(C)S(=O)(=O)c1ccc(-c2cnc3[nH]cc(C(=O)N[C@@H](C)c4ccccc4)c3n2)cc1 [Compound I-35] | Ki | 500 to 5000 nM
CCN(C(=O)c1c[nH]c2ncc(-c3ccc(S(=O)(=O)C(C)C)cc3)nc12)c1ccccc1 [Compound I-9] | Ki | 500 to 5000 nM
CC(C)S(=O)(=O)c1ccc(-c2cnc3[nH]cc(C(=O)NCc4cccc(F)c4)c3n2)cc1 [Compound I-75] | Ki | 100 to 500 nM
COC[C@H](NC(=O)c1c[nH]c2ncc(-c3ccc(S(=O)(=O)C(C)C)cc3)nc12)c1ccccc1 [Compound I-58] | Ki | 500 to 5000 nM
CC(C)S(=O)(=O)c1ccc(-c2cnc3[nH]cc(C(=O)N[C@H](C)[C@@H](O)c4ccc(O)cc4)c3n2)cc1 [Compound I-84] | Ki | 100 to 500 nM

## Task Give the reported Ki for this compound. CC(C)S(=O)(=O)c1ccc(-c2cnc3[nH]cc(C(=O)NC(CCO)c4ccc(N)cc4)c3n2)cc1 (centres unmarked) [Compound I-80]
## Result 100 to 500 nM

## Task Check the records and state Ki for CC(C)S(=O)(=O)c1ccc(-c2cnc3[nH]cc(C(=O)Nc4ccccc4N)c3n2)cc1 [Compound I-19]
## Result 100 to 500 nM

## Task Quick one: give measured Ki for Cc1cccc(C)c1CNC(=O)c1c[nH]c2ncc(-c3ccc(S(=O)(=O)C(C)C)cc3)nc12 [Compound I-89]
## Result < 100 nM

## Task Dear colleague, please send me the reported Ki for Cc1cccc(CNC(=O)c2c[nH]c3ncc(-c4ccc(S(=O)(=O)C(C)C)cc4)nc23)c1 [Compound I-16] when you can.
## Result < 100 nM

## Task Answer with reported Ki of CC(C)S(=O)(=O)c1ccc(-c2cnc3[nH]cc(C(=O)NCc4ccc(N)cc4)c3n2)cc1 [Compound I-57]
## Result < 100 nM

====

# target-under-test: ATR kinase (full-length ATR) (Homo sapiens)
# Construct: Assays were carried out at 25° C. in the presence of 5 nM full-length ATR
# assay-comment: ATR Inhibition Assay (radioactive-phosphate incorporation)
# Assay type: biochemical
measurement-kind: Ki

## Task # assay system ATR kinase (full-length ATR) (Homo sapiens): give Ki of CC(C)S(=O)(=O)c1ccc(-c2cnc3[nH]cc(C(=O)N4CCC5(CC4)OCCO5)c3n2)cc1 [Compound I-128]
## Result < 100 nM

====

Ki by entry:
# target-under-test: ATR kinase (full-length ATR) (Homo sapiens, UniProt Q13535)
# Construct: Assays were carried out at 25° C. in the presence of 5 nM full-length ATR
# Sequence (Q13535 whole entry): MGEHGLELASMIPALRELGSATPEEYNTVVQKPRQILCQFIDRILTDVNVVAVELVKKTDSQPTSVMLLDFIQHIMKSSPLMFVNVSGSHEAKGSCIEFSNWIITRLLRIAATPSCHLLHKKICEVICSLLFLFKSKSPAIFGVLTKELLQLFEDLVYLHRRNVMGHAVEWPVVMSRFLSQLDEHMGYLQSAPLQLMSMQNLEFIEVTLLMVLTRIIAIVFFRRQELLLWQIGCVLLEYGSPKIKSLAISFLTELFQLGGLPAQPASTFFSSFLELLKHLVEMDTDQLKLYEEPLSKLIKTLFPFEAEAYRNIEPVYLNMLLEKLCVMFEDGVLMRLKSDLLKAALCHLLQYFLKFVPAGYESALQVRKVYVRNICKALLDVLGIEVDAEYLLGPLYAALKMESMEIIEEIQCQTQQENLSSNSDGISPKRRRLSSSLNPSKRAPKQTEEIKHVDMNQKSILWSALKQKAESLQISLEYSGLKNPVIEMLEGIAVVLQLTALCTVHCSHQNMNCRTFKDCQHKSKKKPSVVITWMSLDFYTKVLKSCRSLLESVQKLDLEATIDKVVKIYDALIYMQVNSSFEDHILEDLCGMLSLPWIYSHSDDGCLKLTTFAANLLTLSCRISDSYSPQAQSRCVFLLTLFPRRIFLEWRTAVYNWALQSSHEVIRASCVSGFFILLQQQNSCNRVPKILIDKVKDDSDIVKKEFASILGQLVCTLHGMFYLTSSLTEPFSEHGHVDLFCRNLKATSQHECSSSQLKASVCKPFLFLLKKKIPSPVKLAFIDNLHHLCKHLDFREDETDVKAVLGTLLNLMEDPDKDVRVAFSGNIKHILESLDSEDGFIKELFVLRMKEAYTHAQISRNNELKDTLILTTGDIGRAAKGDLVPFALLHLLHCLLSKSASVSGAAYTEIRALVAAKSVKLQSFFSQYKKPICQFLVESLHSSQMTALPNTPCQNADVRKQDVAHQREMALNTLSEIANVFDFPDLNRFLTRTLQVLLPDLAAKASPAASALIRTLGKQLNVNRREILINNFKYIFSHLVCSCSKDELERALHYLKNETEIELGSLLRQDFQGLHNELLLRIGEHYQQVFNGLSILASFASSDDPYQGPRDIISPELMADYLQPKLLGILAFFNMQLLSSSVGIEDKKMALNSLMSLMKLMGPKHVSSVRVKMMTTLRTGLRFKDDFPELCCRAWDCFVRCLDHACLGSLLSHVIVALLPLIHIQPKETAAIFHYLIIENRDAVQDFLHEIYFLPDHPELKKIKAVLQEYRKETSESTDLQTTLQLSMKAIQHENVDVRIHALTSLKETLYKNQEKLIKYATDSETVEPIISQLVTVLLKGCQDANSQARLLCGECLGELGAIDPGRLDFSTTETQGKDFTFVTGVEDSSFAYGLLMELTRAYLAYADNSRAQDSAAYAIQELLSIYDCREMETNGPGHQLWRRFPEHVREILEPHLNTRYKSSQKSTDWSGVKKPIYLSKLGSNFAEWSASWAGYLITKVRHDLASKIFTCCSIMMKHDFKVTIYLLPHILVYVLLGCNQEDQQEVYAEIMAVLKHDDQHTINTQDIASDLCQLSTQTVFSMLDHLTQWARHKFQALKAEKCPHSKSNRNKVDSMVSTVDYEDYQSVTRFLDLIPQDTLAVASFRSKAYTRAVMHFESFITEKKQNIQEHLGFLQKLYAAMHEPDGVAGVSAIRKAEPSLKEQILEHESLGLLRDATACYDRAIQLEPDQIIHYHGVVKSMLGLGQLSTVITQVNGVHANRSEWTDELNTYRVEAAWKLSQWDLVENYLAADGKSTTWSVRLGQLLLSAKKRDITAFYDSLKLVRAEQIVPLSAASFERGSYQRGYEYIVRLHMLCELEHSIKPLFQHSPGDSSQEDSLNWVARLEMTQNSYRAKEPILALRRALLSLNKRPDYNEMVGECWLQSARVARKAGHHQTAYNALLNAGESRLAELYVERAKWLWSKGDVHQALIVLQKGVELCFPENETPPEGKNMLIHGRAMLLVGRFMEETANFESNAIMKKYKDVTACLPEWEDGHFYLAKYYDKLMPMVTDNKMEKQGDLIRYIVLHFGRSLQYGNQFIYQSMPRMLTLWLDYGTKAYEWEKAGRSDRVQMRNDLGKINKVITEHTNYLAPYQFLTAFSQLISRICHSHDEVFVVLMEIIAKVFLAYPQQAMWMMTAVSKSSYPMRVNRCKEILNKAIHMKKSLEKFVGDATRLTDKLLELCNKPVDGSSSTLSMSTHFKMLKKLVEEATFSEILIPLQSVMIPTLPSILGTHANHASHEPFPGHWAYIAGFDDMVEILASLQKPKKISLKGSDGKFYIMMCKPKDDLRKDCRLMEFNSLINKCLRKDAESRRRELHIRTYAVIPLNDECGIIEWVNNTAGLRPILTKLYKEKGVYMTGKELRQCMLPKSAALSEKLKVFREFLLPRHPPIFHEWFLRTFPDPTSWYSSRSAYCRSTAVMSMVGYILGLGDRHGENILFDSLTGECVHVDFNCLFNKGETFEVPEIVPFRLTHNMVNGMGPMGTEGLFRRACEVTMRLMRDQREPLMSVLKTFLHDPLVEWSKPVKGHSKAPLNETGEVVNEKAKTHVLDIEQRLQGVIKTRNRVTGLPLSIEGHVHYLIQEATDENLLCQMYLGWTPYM
# assay-comment: ATR Inhibition Assay (radioactive-phosphate incorporation)
# Assay type: biochemical
# condition-info: Ki(app); 5 nM full-length ATR, 10 μM ATP, 800 μM target peptide, 25° C.; class symbols; read-out: ATR Inhibition Ki

# annotated cases, reported Ki shown
compound | result
COc1ccc(NC(=O)c2c[nH]c3ncc(-c4ccc(S(=O)(=O)C(C)C)cc4)nc23)cc1 [Compound I-12] | 100 to 500 nM
CC(c1ccc(Cl)cc1)N(C)C(=O)c1c[nH]c2ncc(-c3ccc(S(=O)(=O)C(C)C)cc3)nc12 (stereo not shown) [Compound I-135] | < 100 nM
CC(C)S(=O)(=O)c1ccc(-c2cnc3[nH]cc(C(=O)NCCc4ccccn4)c3n2)cc1 [Compound I-61] | < 100 nM

## Task Give the reported value of Ki for this record: COc1cccc(NC(=O)c2c[nH]c3ncc(-c4ccc(S(=O)(=O)C(C)C)cc4)nc23)c1 [Compound I-11]
## Result 500 to 5000 nM

## Task Look up Ki of Cc1cccc(CNC(=O)c2c[nH]c3ncc(-c4ccc(S(=O)(=O)C(C)C)cc4)nc23)c1C [Compound I-68] and report it.
## Result < 100 nM

## Task Give the reported Ki for this compound. COCCNC(=O)c1c[nH]c2ncc(-c3ccc(S(=O)(=O)C(C)C)cc3)nc12 [Compound I-119]
## Result 100 to 500 nM

## Task Given Cc1ccc(NC(=O)c2c[nH]c3ncc(-c4ccc(S(=O)(=O)C(C)C)cc4)nc23)cc1 [Compound I-70] , respond with its Ki.
## Result 100 to 500 nM

====

# target-under-test: ATR kinase (full-length ATR) (Homo sapiens, UniProt Q13535)
# Construct: Assays were carried out at 25° C. in the presence of 5 nM full-length ATR
# assay-comment: ATR Inhibition Assay (radioactive-phosphate incorporation)
# Assay type: biochemical
# condition-info: Ki(app); 5 nM full-length ATR, 10 μM ATP, 800 μM target peptide, 25° C.; class symbols; read-out: ATR Inhibition Ki
pKi: −log10 of the molar value.
measurement-kind: pKi

Observe how each entry below is paired with its result.
compound | measurement-kind | result
Cc1ccc(NC(=O)c2c[nH]c3ncc(-c4ccc(S(=O)(=O)C(C)C)cc4)nc23)cc1F | pKi | > 7.00
Cc1ccc([C@H](CCO)NC(=O)c2c[nH]c3ncc(-c4ccc(S(=O)(=O)C(C)C)cc4)nc23)cc1 | pKi | 6.30 to 7.00
CC(C)S(=O)(=O)c1ccc(-c2cnc3[nH]cc(C(=O)NC4CCS(=O)(=O)C4)c3n2)cc1 (centres unmarked) | pKi | 5.30 to 6.30
CC(C)S(=O)(=O)c1ccc(-c2cnc3[nH]cc(C(=O)NCc4cccc(Cl)c4F)c3n2)cc1 | pKi | > 7.00
Cc1c(F)cccc1CNC(=O)c1c[nH]c2ncc(-c3ccc(S(=O)(=O)C(C)C)cc3)nc12 | pKi | > 7.00

## Task Identify measured pKi corresponding to `Cc1ccccc1CNC(=O)c1c[nH]c2ncc(-c3ccc(S(=O)(=O)C(C)C)cc3)nc12`
## Result > 7.00

## Task // Input: `CC(C)S(=O)(=O)c1ccc(-c2cnc3[nH]cc(C(=O)NCc4ccccc4CO)c3n2)cc1` . Output its pKi only.
## Result > 7.00

## Task Return reported pKi. Input compound: `CC(C)S(=O)(=O)c1ccc(-c2cnc3[nH]cc(C(=O)NCc4ccc5c(c4)OCO5)c3n2)cc1`
## Result > 7.00

====

# target-under-test: ATR kinase (full-length ATR) (Homo sapiens, UniProt Q13535)
# Construct: Assays were carried out at 25° C. in the presence of 5 nM full-length ATR
# assay-comment: ATR Inhibition Assay (radioactive-phosphate incorporation)
# Format: biochemical
# condition-info: Ki(app); 5 nM full-length ATR, 10 μM ATP, 800 μM target peptide, 25° C.; class symbols; read-out: ATR Inhibition Ki
# Procedure: Compounds were screened for their ability to inhibit ATR kinase using a radioactive-phosphate incorporation assay. Assays were carried out in a mixture of 50 mM Tris/HCl (pH 7.5), 10 mM MgCl2 and 1 mM DTT. […] After removing mean background values for all of the data points, Ki(app) data were calculated from non-linear regression analysis of the initial rate data using the Prism software package (GraphPad Prism version 3.0cx for Macintosh, GraphPad Software, San Diego Calif., USA).
Listing of recorded Ki by entry.

# annotated cases, reported Ki shown
compound | Ki
CC(C)S(=O)(=O)c1ccc(-c2cnc3[nH]cc(C(=O)NCCN(C)C)c3n2)cc1 [Compound I-21] | 0.5 to 5 µM
CC(C)S(=O)(=O)c1ccc(-c2cnc3[nH]cc(C(=O)Nc4cccnc4)c3n2)cc1 [Compound I-5] | < 0.1 µM
CC(C)S(=O)(=O)c1ccc(-c2cnc3[nH]cc(C(=O)NCc4ccccn4)c3n2)cc1 [Compound I-52] | 0.1 to 0.5 µM

## Task Let me know recorded Ki for CC(C)S(=O)(=O)c1ccc(-c2cnc3[nH]cc(C(=O)NC(c4ccccc4)c4ccccc4)c3n2)cc1 [Compound I-108] , thanks.
## Result 0.5 to 5 µM

## Task Read off the recorded Ki for Cc1ccc(CNC(=O)c2c[nH]c3ncc(-c4ccc(S(=O)(=O)C(C)C)cc4)nc23)cc1 [Compound I-17]
## Result < 0.1 µM

## Task Identify measured Ki corresponding to CC(C)S(=O)(=O)c1ccc(-c2cnc3[nH]cc(C(=O)N[C@H]4c5ccccc5C[C@H]4O)c3n2)cc1 [Compound I-69]
## Result < 0.1 µM

## Task Annotate the compound CC(C)S(=O)(=O)c1ccc(-c2cnc3[nH]cc(C(=O)N[C@@H](C(N)=O)c4ccccc4)c3n2)cc1 [Compound I-123] with its measured Ki.
## Result 0.1 to 0.5 µM

## Task Supply measured Ki of CC(C)S(=O)(=O)c1ccc(-c2cnc3[nH]cc(C(=O)NCc4ccccc4)c3n2)cc1 [Compound I-1] in your reply.
## Result < 0.1 µM

## Task Report Ki for CC(C)S(=O)(=O)c1ccc(-c2cnc3[nH]cc(C(=O)NCC4CCC4)c3n2)cc1 [Compound I-29]
## Result < 0.1 µM

Attribution: patent US9096602B2
